Test system: BHK-21 cells
Assay: Anti-fibrosis activity test: inhibition of BHK-21 cell proliferation (CCK-8)
Format: cell-based
Conditions: Mesocricetus auratus, BHK-21, 48 h, CCK-8, 48 hours after administration
Protocol: BHK-21 cells in exponential growth phase were selected. After the fusion growth reached 85-95%, normal passage method was utilized to digest and collect the cells, followed by cell counting and adjusting the cell density to 2×10^4 cells/mL. […] 10 μL of CCK-8 solution ( 1/10 of the volume of the culture solution) was added to each well 48 hours after the administration, and incubated for 2 hours. The absorbance (A) of each well was determined by a microplate reader at 450 nm wavelength. […]
Recorded Metric: IC50

Answered cases to consult:
Compound	System Tested	IC50
O=C1c2c(nc3ccccc3c2OCc2cc(F)cc(F)c2)-c2cccn21 [Compound 579b]	BHK-21 cells	0.05 to 5 mM
N#Cc1cc2c(=O)c3c(n(Cc4ccc(Cl)cc4)c2cc1N1CCNCC1)-c1cccn1C3=O [Compound 640a]	BHK-21 cells	0.05 to 5 mM
O=C1c2c(n(Cc3ccc(F)cc3)c3c(Cl)cccc3c2=O)-c2cccn21 [Compound 481a]	BHK-21 cells	< 0.05 mM
N#Cc1ccc2c(=O)c3c(n(Cc4cccc(F)c4)c2c1)-c1cccn1C3=O [Compound 515a]	BHK-21 cells	0.05 to 5 mM
CN(C)CCOc1c2c(nc3ccccc13)-c1cccn1C2=O [Compound 12b]	BHK-21 cells	0.05 to 5 mM
O=C1c2c([nH]c3cccc(F)c3c2=O)-c2cccn21 [Compound 467a]	BHK-21 cells	< 0.05 mM
CCn1c2c(c(=O)c3cc(F)ccc31)C(=O)n1cccc1-2 [Compound 104a]	BHK-21 cells	< 0.05 mM
O=C1c2c([nH]c3ccc(Cl)cc3c2=O)-c2cccn21 [Compound 180a]	BHK-21 cells	20 to 100 mM

Field request: IC50 | item: O=C1c2c(nc3cccc(F)c3c2OCc2ccc(F)cc2)-c2cccn21 [Compound 468b]
0.05 to 5 mM

---

system: human hepatic stellate cells LX-2; experiment: Anti-fibrosis activity test: inhibition of proliferation of human hepatic stellate cells LX-2 (CCK-8); assay type: cell-based; details: Homo sapiens, 48 h, human hepatic stellate cells LX-2, CCK-8, 48 hours
Recorded Metric: IC50

Molecule	IC50
CC(C)=CCn1c2c(c(=O)c3cc(F)c(N4CCNCC4)cc31)C(=O)n1cccc1-2 [Compound 354a]	5 to 20 mM

For the record O=C1c2c(nc3ccccc3c2OCc2ccccc2I)-c2cccn21 [Compound 576b] , what value of IC50 is listed for human hepatic stellate cells LX-2?
0.05 to 5 mM

Try O=C1c2c([nH]c3ccc(F)cc3c2=O)-c2cccn21 [Compound 156a] next.
< 0.05 mM

Try N#Cc1ccc2nc3c(c(OCc4ccc(-c5ccccc5)cc4)c2c1)C(=O)n1cccc1-3 [Compound 628b] next.
0.05 to 5 mM

Try CC(C)(O)COc1c2c(nc3ccccc13)-c1cccn1C2=O [Compound 660b] next.
0.05 to 5 mM

Try O=C1c2c(n(CCc3ccccc3)c3ccc(F)cc3c2=O)-c2cccn21 [Compound 141a] next.
0.05 to 5 mM

Try CCn1c2c(c(=O)c3cc(F)ccc31)C(=O)n1cccc1-2 [Compound 104a] next.
0.05 to 5 mM

Try N#Cc1ccc(F)cc1COc1c2c(nc3ccccc13)-c1cccn1C2=O [Compound 616b] next.
0.05 to 5 mM

Try O=C(O)COc1c2c(nc3ccc(F)cc13)-c1cccn1C2=O [Compound 153b] next.
0.05 to 5 mM
